system: Spodoptera frugiperda; assay: Growth inhibitory activity against first-instar larval stage of Spodoptera frugiperda (fall armyworm) fed with compound incorporated diet assessed as length gained at 10 ug/ml after 21 days (reference value: 100%); type: functional
Field: Length gained relative to control. Provide a value for each of the molecules that follow.
Answer in %, number only, no unit symbol.

Ask: API: value(readout=Length gained relative to control, system=Spodoptera frugiperda) for record `CC(=O)O[C@@H]1C[C@H]2C(C)(C)C(=O)C=C[C@]2(C)[C@H]2CC[C@@]3(C)[C@H](c4ccoc4)OC(=O)[C@H]4O[C@]43[C@@]21C`
Result: 0

Ask: What would you report for `CC(C)c1ccc2c(c1)CC[C@H]1[C@](C)(CO)CCC[C@]21C` ?
Result: 59.4

Ask: // same read-out, input: `C[C@H]1[C@H](C)CC[C@]2(C(=O)O)CC[C@]3(C)C(=CC[C@@H]4[C@@]5(C)CC[C@H](O)C(C)(C)[C@@H]5CC[C@]43C)[C@H]12`
Result: 48.4

Ask: # iterate: `C=C[C@]1(C)CC[C@H]2C(=CC[C@@H]3[C@](C)(CO)CC[C@@H]4C[C@@]432)C1`
Result: 30.8

Ask: Similarly, `C=CC(C)(C)C1=C(O)C(=O)c2ccccc2C1=O` ?
Result: 39.8
